tested on: SN12C renal; assay: NCI-60 one-dose screen, 48 h; conditions: 10 µM unless noted
About 83,000 compounds went through this panel and 20% of them were active in at least one assay; those are over-represented in the sample as a whole. Calls of active or inactive are those of the source. Rule for the calls: active = growth percent below 10; inactive = the rest.
Respond with a class label; see active, inactive

Reference set, count: 2
CN(CCCCCl)P(=O)(OCc1ccc([N+](=O)[O-])o1)C(F)(F)c1ccc(CC(=O)NC[C@@H](O)/C=C\[C@@H](O)[C@H](CO)Cc2ccccc2)cc1 (some centres undefined): inactive
Cc1cc(C)nc(SC2=C(Nc3ccc(C)c(Cl)c3)C(=O)N(Cc3ccccc3)C2=O)n1: inactive

stdin: Could you check what this test reported for "C#CC(F)(F)[C@]1(O)CC[C@H]2[C@@H]3CCC4=CC(=O)CCC4=C3[C@@H](c3ccc(C(C)=O)cc3)C[C@@]21C" ?
stdout: inactive

stdin: # lookup: test call for "O=S(=O)(Nc1ccc(OC(F)F)cc1)c1ccc(-c2cnc(C3CC3)o2)cc1"
stdout: inactive

stdin: Short answer needed: outcome of this test for "O=C1c2cc3c(cc2-c2c1c1ccc(F)cc1c(=O)n2C[C@H](O)[C@@H](O)[C@H](O)CO)OCO3" ?
stdout: active

stdin: Would you mind telling me which call this test gave "CCCSc1ccc2nc(NC(=O)OC)[nH]c2c1" ?
stdout: inactive

stdin: I'd appreciate the recorded outcome for "COc1cc(C=Nc2oc(-c3ccccc3)c(-c3ccccc3)c2C#N)cc(CN2CCCCC2)c1O" from this test.
stdout: inactive

---

system: SW-620 colon; assay: NCI-60 one-dose screen, 48 h (100 = growth as untreated, 0 = no growth, -100 = all killed); conditions: 10 µM unless noted
Compounds without any hit were thinned out: in the full panel of roughly 83,000, 20% have a hit.
readout_name: growth (%)
Lab book: enter the figure in %, no units written.

Past entries and their recorded results:
COc1ccc2c(c1)CC/C(=C\c1cncc(Br)c1)C2=O: 42.6
CC(=O)c1nc2ccccc2n1CC(=O)c1cccc(Cl)c1: 23
C=C1c2nc3ccccc3n2C=C(c2ccc(Cl)cc2)N1Cc1ccc(OC)cc1: 92.7
COc1cccc2c1C(=O)c1c(O)c3c(c(O)c1C2=O)C[C@](O)(C(=O)CO)C[C@H]3O[C@@H]1C[C@@H](NC(=O)CCCN(C)C2(c3ccc(F)cc3)CC3CCC2C3)[C@H](O)[C@@H](C)O1 (stereo not given in full): -78.5
C=C1C(=O)O[C@H]2[C@H]1CC/C(COC(=O)NCc1ccc(OC)c(OC)c1)=C\CC[C@@]1(C)O[C@@H]21: 14.1
CC[C@H]1OC(=O)[C@H](C)[C@@H](O[C@H]2C[C@@](C)(OC)[C@@H](O)[C@H](C)O2)[C@H](C)[C@@H](O[C@@H]2O[C@H](C)C[C@H](N(C)C)[C@H]2O)[C@](C)(O)C[C@H](C)CN(C)[C@H](C)[C@@H](O)[C@]1(C)O: 84.2
c1ccc2[nH]c(-c3ccc(Nc4nc(N5CCCC5)nc5[nH]ncc45)cc3)nc2c1: -64.1
Cc1cn2c(/C=C3/C(=O)Nc4c3ccc3ccccc43)c(C(F)(F)F)nc2s1: 18.2

stdin: Respond only with growth recorded for "COc1ccc(-c2cc(-c3ccc(Nc4ccnc5cc(Cl)ccc45)cc3)nc(N3CCOCC3)n2)cc1"
stdout: 8.98

stdin: Tell me measured growth for "COc1ccc(S(=O)(=O)N2CCN(C)CC2)cc1NC(=O)c1[nH]c(C)c2c1CCCCC2=O" please.
stdout: 70.7

stdin: Output measured growth for this item: c1csc(C2=NN3C(C2)c2ccccc2OC3c2ccncc2)c1 (stereo not given)
stdout: 103

stdin: Check the records and state growth for "CC[C@]1(O)C[C@@H]2CN(CCc3c([nH]c4ccccc34)[C@@](C(=O)OC)(c3cc4c(cc3OC)N(C)[C@H]3[C@@](O)(C(N)=O)[C@H](O)[C@]5(CC)[C@@H]6C[C@@H]6CN6CC[C@]43[C@@H]65)C2)C1"
stdout: 26.7

stdin: Please supply the value of reported growth for the item Cc1cc(N2CCCC2)nc(NC2CCCC(Nc3ccnc4cc(Cl)ccc34)C2)n1 (stereo not given)
stdout: -58.3

stdin: For "COc1ccc(C(=O)COc2cccc(/C=C3\CSc4ccccc4C3=O)c2)cc1" , write its growth.
stdout: -96.9

stdin: Give reported growth value for "COC[C@H](C)n1c(C2CCOCC2)nc2cnc3cc(-c4c(C)noc4C)c(OC)cc3c21"
stdout: 64.3

stdin: Specify growth for CON1C(=O)CC[C@]2(C)[C@H]3CC[C@@H]4C([C@@]5(C)CCC(=O)O5)CC[C@@]4(C)[C@]3(C)CC[C@H]2C1(C)C (stereo not given in full) and stop.
stdout: 103

stdin: Look up and report measured growth for this entry: "COc1cccc(/C=N/NC(=O)c2ccccc2Nc2ccnc(C(F)(F)F)c2)c1O"
stdout: 31.9

stdin: Return growth (reported value) for this molecule: "CN1CCN(c2ccc3nc(-c4ccc(OCCCCN5CCN(CCCCN6C(=O)c7cccc8cccc(c78)C6=O)CC5)cc4)[nH]c3c2)CC1"
stdout: 84.2

stdin: Please supply the value of reported growth for the item O=C1NC(=O)C(c2ccc(Cl)cc2Cl)N1 (stereo not given)
stdout: 106

stdin: Read the entry "COc1ccc(-c2nc3ccc(-c4nc5ccc(N6CCN(C)CC6)cc5[nH]4)cc3[nH]2)cc1OC" and write its reported growth.
stdout: 49.2

stdin: State its growth: "COc1cccc(NC(=O)c2sc3nc(C)c(C(C)=O)cc3c2N)c1"
stdout: 39.3

stdin: Identify the reported growth for the following entry. "COC(=O)c1ccc(Cn2cnc3c(N)ncnc32)cc1"
stdout: 109

stdin: Tell me growth reported for "CN(Cc1cc(Cl)cc(Cl)c1O)Cc1cc(Cl)cc(Cl)c1O"
stdout: 73.2

stdin: Let me know recorded growth for "O=C(O)c1ccc(NC(=O)c2ccc(-c3cccc([N+](=O)[O-])c3)o2)cc1" , thanks.
stdout: 96

stdin: Supply measured growth of CSc1ccc(SC2c3ccc(C)cc3Oc3nc(N)c(C#N)c(N)c32)cc1 (stereo not given) in your reply.
stdout: -68.1

stdin: Tell me its growth given COc1cc(C2CC(=O)c3ccccc3N2)cc(OC)c1OC (stereo not given) as the entry.
stdout: 100
